experimentalDetails: Pharmacokinetics after oral apixaban capsules, plasma concentrations by LC/MS
setupConditions: both, mixed-breed, dog, plasma, po, 0.2 mg/kg, V/F (volume of distribution per fraction absorbed), dogs, mean dose 0.2 mg/kg; mean, n = 5

{"columns": ["itemSmiles", "Vd/F (L/kg)"],
 "data": [
  ["COc1ccc(-n2nc(C(N)=O)c3c2C(=O)N(c2ccc(N4CCCCC4=O)cc2)CC3)cc1", 0.534]
]}

----------
experimentalDetails: Pharmacokinetics after intravenous apixaban, plasma concentrations by LC/MS
Assay type: in vivo, dog
setupConditions: both sexes, mixed-breed, dog, plasma, iv, 0.18 mg/kg, dogs, IV, mean dose 0.18 mg/kg; mean of 6 dogs; read-out: Vd (volume of distribution)

{"columns": ["itemSmiles", "Vd (L/kg)"],
 "data": [
  ["COc1ccc(-n2nc(C(N)=O)c3c2C(=O)N(c2ccc(N4CCCCC4=O)cc2)CC3)cc1", 0.177]
]}
